// data source = ChEMBL document CHEMBL1144921

Assay System: Mu-type opioid receptor (Homo sapiens, UniProt P35372)
Sequence (P35372 whole entry): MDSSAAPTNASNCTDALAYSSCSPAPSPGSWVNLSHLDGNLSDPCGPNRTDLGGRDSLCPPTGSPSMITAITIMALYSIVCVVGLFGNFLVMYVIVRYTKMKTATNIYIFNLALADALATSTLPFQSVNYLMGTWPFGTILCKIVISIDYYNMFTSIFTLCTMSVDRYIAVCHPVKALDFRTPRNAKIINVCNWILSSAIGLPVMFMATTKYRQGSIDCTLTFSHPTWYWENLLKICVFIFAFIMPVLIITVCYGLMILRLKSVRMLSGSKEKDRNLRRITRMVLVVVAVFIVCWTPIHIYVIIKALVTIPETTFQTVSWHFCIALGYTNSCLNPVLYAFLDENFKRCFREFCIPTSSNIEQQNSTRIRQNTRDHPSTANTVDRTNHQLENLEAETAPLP
Assay Notes: Percent stimulation of [35S]GTP-gamma-S, binding in recombinant human Opioid receptor mu 1 transfected into CHO cells
Format: functional, cell-based
Measure Name: Stimulation (%)
The answer is to be given in %; state only the numeric part.

>>> measured_number("CCN[C@@]12Cc3c([nH]c4ccccc34)[C@@H]3Oc4c(O)ccc5c4[C@@]31CCN(C)C2C5")
50
>>> measured_number("CN1CC[C@]23c4c5ccc(O)c4O[C@H]2c2[nH]c4ccccc4c2C[C@@]3(NC(=O)Cc2ccccc2)C1C5")
53

Pending molecule:
I have this molecule here, "CCCCN[C@@]12Cc3c([nH]c4ccccc34)[C@@H]3Oc4c(O)ccc5c4[C@@]31CCN(C)C2C5" , and I need its recorded Stimulation.
40

----------
Assay System: Mu-type opioid receptor (Homo sapiens, UniProt P35372)
Assay Notes: Stimulation of [35S]GTP-gamma-S, binding to recombinant human Opioid receptor mu 1 expressed in CHO cells
Assay type: functional, cell-based
Listed next: entries and their corresponding log10(EC50).
Base-10 log of EC50, unit nM.

>>> measured_number("CN1CC[C@]23c4c5ccc(O)c4O[C@H]2c2[nH]c4ccccc4c2C[C@@]3(NCCCc2ccccc2)C1C5")
1.65
>>> measured_number("CN1CC[C@]23c4c5ccc(O)c4O[C@H]2c2[nH]c4ccccc4c2C[C@@]3(NC(=O)Cc2ccccc2)C1C5")
1.98
>>> measured_number("CN1CC[C@]23c4c5ccc(O)c4O[C@H]2c2[nH]c4ccccc4c2C[C@@]3(NCCc2ccccc2)C1C5")
0.73
>>> measured_number("CCN[C@@]12Cc3c([nH]c4ccccc34)[C@@H]3Oc4c(O)ccc5c4[C@@]31CCN(C)C2C5")
2.26
>>> measured_number("CCCCC(=O)N[C@@]12Cc3c([nH]c4ccccc34)[C@@H]3Oc4c(O)ccc5c4[C@@]31CCN(C)C2C5")
2.17
>>> measured_number("CCCCN[C@@]12Cc3c([nH]c4ccccc34)[C@@H]3Oc4c(O)ccc5c4[C@@]31CCN(C)C2C5")
2.43
>>> measured_number("CCCCCCC(=O)N[C@@]12Cc3c([nH]c4ccccc34)[C@@H]3Oc4c(O)ccc5c4[C@@]31CCN(C)C2C5")
1.71
>>> measured_number("CN1CC[C@]23c4c5ccc(O)c4O[C@H]2c2[nH]c4ccccc4c2C[C@@]3(NC(=O)CCc2ccccc2)C1C5")
0.72

Pending compound:
I have this compound here, "CN1CC[C@]23c4c5ccc(O)c4O[C@H]2c2[nH]c4ccccc4c2C[C@@]3(CCCc2ccccc2)C1C5" , and I need its recorded log10(EC50).
1.33

----------
Listed next: entries and their corresponding Stimulation.
Assay System: Delta-type opioid receptor (Homo sapiens, UniProt P41143)
Sequence (P41143 whole entry): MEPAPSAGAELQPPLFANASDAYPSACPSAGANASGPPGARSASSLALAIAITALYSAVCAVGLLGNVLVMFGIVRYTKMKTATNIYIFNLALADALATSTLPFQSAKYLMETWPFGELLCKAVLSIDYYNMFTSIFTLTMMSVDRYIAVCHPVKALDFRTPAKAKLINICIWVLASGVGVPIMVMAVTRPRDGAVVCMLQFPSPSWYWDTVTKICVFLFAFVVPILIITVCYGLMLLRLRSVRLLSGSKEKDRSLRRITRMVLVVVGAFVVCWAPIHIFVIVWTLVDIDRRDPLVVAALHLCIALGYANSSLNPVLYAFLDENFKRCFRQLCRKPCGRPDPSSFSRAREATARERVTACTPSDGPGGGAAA
Assay Notes: Percent stimulation of [35S]GTP-gamma-S, binding to recombinant human Opioid receptor delta 1 expressed in CHO cells
Assay type: functional, cell-based
The answer is to be given in %; state only the numeric part.

>>> measured_number("CCCCC(=O)N[C@@]12Cc3c([nH]c4ccccc34)[C@@H]3Oc4c(O)ccc5c4[C@@]31CCN(C)C2C5")
74
>>> measured_number("CN1CC[C@]23c4c5ccc(O)c4O[C@H]2c2[nH]c4ccccc4c2C[C@@]3(NC(=O)Cc2ccccc2)C1C5")
89
>>> measured_number("CCCCCCC(=O)N[C@@]12Cc3c([nH]c4ccccc34)[C@@H]3Oc4c(O)ccc5c4[C@@]31CCN(C)C2C5")
55
>>> measured_number("CCCCN[C@@]12Cc3c([nH]c4ccccc34)[C@@H]3Oc4c(O)ccc5c4[C@@]31CCN(C)C2C5")
36
>>> measured_number("CN1CC[C@]23c4c5ccc(O)c4O[C@H]2c2[nH]c4ccccc4c2C[C@@]3(NCCCc2ccccc2)C1C5")
37

Param readout= Stimulation; system= Delta-type opioid receptor (Homo sapiens, UniProt P41143); entry= "CCN[C@@]12Cc3c([nH]c4ccccc34)[C@@H]3Oc4c(O)ccc5c4[C@@]31CCN(C)C2C5" ; returns value.
43

Try this compound next: "CN1CC[C@]23c4c5ccc(O)c4O[C@H]2c2[nH]c4ccccc4c2C[C@@]3(NC(=O)CCc2ccccc2)C1C5"
72

Try this compound next: "CN1CC[C@]23c4c5ccc(O)c4O[C@H]2c2[nH]c4ccccc4c2C[C@@]3(NCCc2ccccc2)C1C5"
33

Try this compound next: "CN1CC[C@]23c4c5ccc(O)c4O[C@H]2c2[nH]c4ccccc4c2C[C@@]3(CCCc2ccccc2)C1C5"
65

Try this compound next: "CN1CC[C@]23c4c5ccc(O)c4O[C@H]2c2[nH]c4ccccc4c2C[C@@]3(N)C1C5"
38

----------
Assay System: Mu-type opioid receptor (Homo sapiens)
Assay Notes: Percent stimulation of [35S]GTP-gamma-S, binding in recombinant human Opioid receptor mu 1 transfected into CHO cells
Assay type: functional, cell-based
Measure Name: Stimulation (%)
The answer is to be given in %; state only the numeric part.

Worked cases, answers included:
>>> measured_number("C[C@@H](NC(=O)[C@@H](N)Cc1ccc(O)cc1)C(=O)NCC(=O)N(C)[C@@H](Cc1ccccc1)C(=O)NCCO")
100
>>> measured_number("CN1CC[C@]23c4c5ccc(O)c4O[C@H]2c2[nH]c4ccccc4c2C[C@@]3(NC(=O)CCc2ccccc2)C1C5")
27

I have this molecule here, "CN1CC[C@]23c4c5ccc(O)c4O[C@H]2c2[nH]c4ccccc4c2C[C@@]3(NCCc2ccccc2)C1C5" , and I need its recorded Stimulation.
93

Try this molecule next: "CN1CC[C@]23c4c5ccc(O)c4O[C@H]2c2[nH]c4ccccc4c2C[C@@]3(CCCc2ccccc2)C1C5"
91

----------
Listed next: entries and their corresponding Stimulation.
Assay System: Kappa-type opioid receptor (Homo sapiens)
Assay Notes: Percent stimulation of [35S]GTP-gamma-S, binding in recombinant human Opioid receptor kappa 1 transfected into CHO cells
Format: functional, cell-based

>>> result("CN1CC[C@]23c4c5ccc(O)c4O[C@H]2c2[nH]c4ccccc4c2C[C@@]3(NC(=O)Cc2ccccc2)C1C5")
"36%"
>>> result("CN1CC[C@]23c4c5ccc(O)c4O[C@H]2c2[nH]c4ccccc4c2C[C@@]3(NCCCc2ccccc2)C1C5")
"65%"

Pending molecule:
I have this molecule here, "CN1CC[C@]23c4c5ccc(O)c4O[C@H]2c2[nH]c4ccccc4c2C[C@@]3(NCCc2ccccc2)C1C5" , and I need its recorded Stimulation.
74%

----------
Listed next: entries and their corresponding Ki.
Assay System: Kappa-type opioid receptor (Homo sapiens, UniProt P41145)
Sequence (P41145 whole entry): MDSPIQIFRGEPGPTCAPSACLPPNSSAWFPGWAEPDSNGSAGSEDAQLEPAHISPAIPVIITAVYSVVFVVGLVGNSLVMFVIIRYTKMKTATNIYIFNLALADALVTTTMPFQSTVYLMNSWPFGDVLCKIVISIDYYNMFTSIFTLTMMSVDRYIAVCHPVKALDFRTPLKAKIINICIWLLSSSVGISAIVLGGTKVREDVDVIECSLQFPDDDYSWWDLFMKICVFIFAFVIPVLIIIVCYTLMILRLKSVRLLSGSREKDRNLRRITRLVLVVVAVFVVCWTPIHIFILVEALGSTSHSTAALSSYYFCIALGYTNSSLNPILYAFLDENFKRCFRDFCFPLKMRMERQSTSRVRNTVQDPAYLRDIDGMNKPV
Assay Notes: Displacement of [3H]U-69593 from human recombinant Opioid receptor kappa 1 on CHO cell membranes.
Please answer using a numeric value trailed by its unit.

Worked cases, answers included:
>>> result("CCN[C@@]12Cc3c([nH]c4ccccc34)[C@@H]3Oc4c(O)ccc5c4[C@@]31CCN(C)C2C5")
"63.8 nM"
>>> result("CN1CC[C@]23c4c5ccc(O)c4O[C@H]2c2[nH]c4ccccc4c2C[C@@]3(N)C1C5")
"399 nM"
>>> result("CN1CC[C@]23c4c5ccc(O)c4O[C@H]2c2[nH]c4ccccc4c2C[C@@]3(NCCc2ccccc2)C1C5")
"13.8 nM"
>>> result("CN1CC[C@]23c4c5ccc(O)c4O[C@H]2c2[nH]c4ccccc4c2C[C@@]3(CCCc2ccccc2)C1C5")
"63.3 nM"

I have this compound here, "CN1CC[C@]23c4c5ccc(O)c4O[C@H]2c2[nH]c4ccccc4c2C[C@@]3(NC(=O)CCc2ccccc2)C1C5" , and I need its recorded Ki.
24.5 nM

Try this compound next: "CN1CC[C@]23c4c5ccc(O)c4O[C@H]2c2[nH]c4ccccc4c2C[C@@]3(NCCCc2ccccc2)C1C5"
7.79 nM

Try this compound next: "CCCCC(=O)N[C@@]12Cc3c([nH]c4ccccc34)[C@@H]3Oc4c(O)ccc5c4[C@@]31CCN(C)C2C5"
723 nM

Try this compound next: "CCCCCCC(=O)N[C@@]12Cc3c([nH]c4ccccc34)[C@@H]3Oc4c(O)ccc5c4[C@@]31CCN(C)C2C5"
409 nM

Try this compound next: "CN1CC[C@]23c4c5ccc(O)c4O[C@H]2c2[nH]c4ccccc4c2C[C@@]3(NC(=O)Cc2ccccc2)C1C5"
148 nM

Try this compound next: "CCCCN[C@@]12Cc3c([nH]c4ccccc34)[C@@H]3Oc4c(O)ccc5c4[C@@]31CCN(C)C2C5"
36.1 nM

Try this compound next: CN1CC[C@]23c4c5ccc(O)c4O[C@H]2c2[nH]c4ccccc4c2C[C@@]3(O)[C@H]1C5 [OXYMORPHINDOLE]
396 nM

----------
Assay System: Kappa-type opioid receptor (Homo sapiens)
Assay Notes: Stimulation of […] binding at human recombinant Opioid receptor kappa 1 transfected into CHO cells.
Measure Name: EC50 (nM)
The answer is to be given in nM; state only the numeric part.

>>> measured_number("CN1CC[C@]23c4c5ccc(O)c4O[C@H]2c2[nH]c4ccccc4c2C[C@@]3(NC(=O)Cc2ccccc2)C1C5")
96.2

I have this molecule here, "CN1CC[C@]23c4c5ccc(O)c4O[C@H]2c2[nH]c4ccccc4c2C[C@@]3(NCCCc2ccccc2)C1C5" , and I need its recorded EC50.
27.2
